pIC50 reference
- subject-of-test: KRAS G12V (Homo sapiens (Human), UniProt P01116+P62937, G12V)
- Sequence (P01116-2 other isoform, or with tags, fused parts or gaps G12V): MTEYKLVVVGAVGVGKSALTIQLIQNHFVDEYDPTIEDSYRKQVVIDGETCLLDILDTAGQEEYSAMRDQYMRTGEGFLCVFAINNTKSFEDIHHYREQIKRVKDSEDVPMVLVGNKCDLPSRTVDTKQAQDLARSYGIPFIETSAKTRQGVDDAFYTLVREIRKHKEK
- Sequence (P62937 whole entry): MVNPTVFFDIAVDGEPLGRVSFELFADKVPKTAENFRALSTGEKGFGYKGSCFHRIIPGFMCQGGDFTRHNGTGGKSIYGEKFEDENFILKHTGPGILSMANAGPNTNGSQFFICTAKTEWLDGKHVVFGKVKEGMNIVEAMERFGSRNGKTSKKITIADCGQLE
- experiment-notes: Ras-Raf (BRAF RBD) disruption / FRET / MOA assay, KRAS G12V
- Assay type: biochemical
- cond: read-out: IC50* KRAS G12V FRET data
pIC50: −log10 of the molar value.

compound	pIC50
CO[C@@H](C)c1ncccc1-c1c2c3cc(ccc3n1CC(F)(F)F)-c1cccc(c1)CN(NC(=O)[C@@H](COC1CN(C(=O)C#CC(C)(C)N(C)C)C1)C(C)C)C(=O)N1CCC[C@H](N1)C(=O)OCC(C)(C)C2 (atropisomer, axis not shown) [Example A601]	5.00 to 6.00
CO[C@@H](C)c1ncccc1-c1c2c3cc(ccc3n1CC(F)(F)F)-c1csc(n1)C[C@H](NC(=O)[C@H](C(C)C)N(C)C(=O)N1CCC3(CC1)CN(C(=O)/C=C/CF)C3)C(=O)N1CCC[C@H](N1)C(=O)OCC(C)(C)C2 (atropisomer, axis not shown) [Example A602]	7.00 to 8.00
CCn1c(-c2cccnc2COC)c2c3cc(ccc31)-c1cc(O)cc(c1)C[C@H](NC(=O)[C@H](C(C)C)N(C)C(=O)[C@H]1CCN(C(=O)C#CCN3CCOCC3)C1)C(=O)N1CCC[C@H](N1)C(=O)OCC(C)(C)C2 [Example A095]	6.00 to 7.00
C=CC(=O)N1CC[C@H](C(=O)N(C)[C@H](C(=O)N[C@H]2Cc3cccc(c3)-c3ccc4c(c3)c(c(-c3cnccc3[C@H](C)OC)n4CC)CC(C)(C)COC(=O)[C@@H]3CCCN(N3)C2=O)C(C)C)C1 [Example A122]	< 5.00

src = patent US11566007B2
